assay: Plasma pharmacokinetic analysis in rats, i.v. bolus; assay type: in vivo; conditions: male, Sprague-Dawley, rat, plasma, iv, 10 mg/kg, rats, single 10 mg/kg intravenous dose; read-out: half-life in plasma
reported.metric: half-life

Entry Cc1csc(CN(C)C(=O)c2cccc(C(=O)N[C@@H](Cc3ccccc3)[C@H](O)CNCc3cncc(C(C)(C)F)c3)c2)n1 , half-life reported as 6 to 13 h

###

target: memapsin 2 (Homo sapiens); test: Inhibition of memapsin 2 beta-secretase activity (fluorogenic substrate FS-2); format: biochemical; conditions: memapsin 2, pH 4, 37° C., 20 minutes pre-incubation; read-out: M2Ki
Sequence (P56817 46-501): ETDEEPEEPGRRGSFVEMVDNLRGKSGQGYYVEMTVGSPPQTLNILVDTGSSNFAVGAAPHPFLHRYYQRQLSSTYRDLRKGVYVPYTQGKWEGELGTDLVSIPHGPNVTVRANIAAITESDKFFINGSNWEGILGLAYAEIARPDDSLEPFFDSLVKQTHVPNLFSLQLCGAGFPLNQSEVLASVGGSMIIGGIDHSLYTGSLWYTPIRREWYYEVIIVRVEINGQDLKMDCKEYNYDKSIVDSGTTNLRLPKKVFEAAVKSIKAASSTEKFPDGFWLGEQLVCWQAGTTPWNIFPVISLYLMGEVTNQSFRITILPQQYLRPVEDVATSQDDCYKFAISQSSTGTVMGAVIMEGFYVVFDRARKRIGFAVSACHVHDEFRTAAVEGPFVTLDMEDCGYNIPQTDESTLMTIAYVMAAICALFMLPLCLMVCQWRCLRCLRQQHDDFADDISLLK
pKi: −log10 of the molar value.
reported.metric: pKi

For the molecule CC(=O)Nc1cc(CNC[C@@H](O)[C@H](Cc2ccccc2)NC(=O)c2cccc(C(=O)N(C)Cc3nc(C)cs3)c2)cc(C(C)C)c1 , the measured pKi on memapsin 2 (Homo sapiens) was > 6.52

# value of pKi, memapsin 2 (Homo sapiens), item COc1cccc(CNC[C@@H](O)[C@H](Cc2ccccc2)NC(=O)c2cc(C(=O)N(C)Cc3nc(C)cs3)cc(-c3ccccn3)c2)c1 = > 6.52

// returns pKi for Cc1csc(CN(C)C(=O)c2cccc(C(=O)N[C@@H](Cc3cscn3)[C@H](O)CNCc3cncc(C(C)C)c3)c2)n1 with memapsin 2 (Homo sapiens); value = 6.30 to 6.52

Item: Cc1csc(CN(C)C(=O)c2cccc(C(=O)N[C@@H](Cc3ccccc3)[C@H](O)CN[C@H](C)c3cncc(C(C)C)c3)c2)n1 | System: memapsin 2 (Homo sapiens) | pKi: > 6.52

The observed pKi for Cc1csc(CN(C)C(=O)c2cccc(C(=O)N[C@@H](Cc3ccccc3)[C@H](O)CN[C@@H](C)c3cncc(C(C)C)c3)c2)n1 when tested with memapsin 2 (Homo sapiens) stands at > 6.52

Considering COCc1cc(C(=O)N[C@@H](Cc2ccccc2)[C@H](O)CNCc2cccc(OC)c2)cc(C(=O)N(C)Cc2nc(C)cs2)c1 , its pKi with memapsin 2 (Homo sapiens) was recorded as > 6.52

###

target: memapsin 2 (Homo sapiens); assay: Inhibition of memapsin 2 beta-secretase activity (fluorogenic substrate FS-2); type: biochemical; conditions: memapsin 2, pH 4, 37° C., fluorogenic substrate FS-2; read-out: M2Ki
pKi: −log10 of the molar value.
reported.metric: pKi

Recorded pKi (compound COc1cc(CNC[C@@H](O)[C@H](Cc2ccccc2)NC(=O)c2cccc(C(=O)N(C)Cc3nc(C)cs3)c2)nc(N(C)C)n1 ): > 6.52

Lab note: Cc1csc(CN(C)C(=O)c2cccc(C(=O)N[C@@H](Cc3ccccc3)[C@H](O)CNCc3cncc(C(C)CO)c3)c2)n1 (stereo partly drawn) [Compound 313] gave pKi of > 6.52

For this compound ( Cc1csc(CN(C)C(=O)c2cccc(C(=O)N[C@@H](Cc3ccccc3)[C@H](O)CNCc3cncc(C(C)CO)c3)c2)n1 (stereo partly drawn) [Compound 314] ), measured pKi is > 6.52

###

Please respond with reported pKi for every item in the list.
target: memapsin 2 (Homo sapiens); assay: Inhibition of memapsin 2 beta-secretase activity (fluorogenic substrate FS-2); assay type: biochemical; settings: memapsin 2, pH 4, 37° C., 20 minutes pre-incubation; read-out: M2Ki
pKi: −log10 of the molar value.

For COCCn1ncc(CNC[C@@H](O)[C@H](Cc2ccccc2)NC(=O)c2cc(C(=O)N[C@H](C)c3ccccc3)cc(N(C)S(C)(=O)=O)c2)c1C the molecule record lists pKi as > 6.52

The molecule listed as Cc1csc(CN(C)C(=O)c2cc(C(=O)N[C@@H](Cc3ccccc3)[C@H](O)CNCc3cc(OC(=O)N(C)C)cc(C(C)C)c3)cc(N(C)C)c2)n1 has a reported pKi of > 6.52

The molecule Cc1c(CNC[C@@H](O)[C@H](Cc2ccccc2)NC(=O)c2cc(C(=O)N[C@H](C)c3ccccc3)cc(N(C)S(C)(=O)=O)c2)cnn1C(C)(C)C showed pKi equal to 6.30 to 6.52

The molecule COc1cccc(C(C)(C)NC[C@@H](O)[C@H](Cc2ccccc2)NC(=O)c2cccc(C(=O)N(C)Cc3nc(C)cs3)c2)c1 showed pKi equal to > 6.52

The recorded pKi for COC(=O)c1cc(CNC[C@@H](O)[C@H](Cc2ccccc2)NC(=O)c2cccc(C(=O)N(C)Cc3nc(C)cs3)c2)cc(OC)c1 is > 6.52

Record summary for Cc1csc(CN(C)C(=O)c2cccc(C(=O)N[C@@H](Cc3ccccc3)[C@H](O)CNCc3cccc(C(C)(C)O)c3)c2)n1 : reported pKi = > 6.52

Value of measured pKi for the entry Cc1csc(CN(C)C(=O)c2cccc(C(=O)N[C@@H](Cc3ccccc3)[C@H](O)CNCc3cc(C(C)C)cnc3F)c2)n1 : > 6.52

pKi in this record for Cc1csc(CN(C)C(=O)c2cccc(C(=O)N[C@@H](Cc3ccccc3)[C@H](O)CNCc3cccc(O)c3)c2)n1 : < 6.30

molecule COC(=O)c1cc(CNC[C@@H](O)[C@H](Cc2ccccc2)NC(=O)c2cc(C(=O)N[C@H](C)c3ccccc3)cc(N(C)S(C)(=O)=O)c2)cc(OC)c1 , pKi observed: > 6.52

// recorded pKi for COc1cccc(CNC[C@@H](O)[C@H](Cc2ccccc2)NC(=O)c2cccc(C(=O)N(C)Cc3ccco3)c2)c1 : < 6.30

Note to self: pKi recorded for Cc1csc(CN(C)C(=O)c2cc(CF)cc(C(=O)N[C@@H](Cc3ccccc3)[C@H](O)CNCc3cncc(C(C)C)c3)c2)n1 was > 6.52

Given item Cc1csc(CN(C)C(=O)c2cccc(C(=O)N[C@@H](Cc3ccccc3)[C@H](O)CNCc3cccc4ccccc34)c2)n1 , the value recorded as its pKi is 6.30 to 6.52

The recorded pKi for C[C@@H](NC(=O)c1cc(C(=O)N[C@@H](Cc2ccccc2)[C@H](O)CNCc2cncc(C(C)(C)F)c2)cc(N(C)S(C)(=O)=O)c1)c1ccccc1 is > 6.52

Value of pKi reported for the molecule Cc1csc(CN(C)C(=O)c2cc(C(=O)N[C@@H](Cc3ccccc3)[C@H](O)CNCc3cncc(C(C)C)c3)cc(N3CCCC3=O)c2)n1 is > 6.52

Consider C=C(C)c1cccc(CNC[C@@H](O)[C@H](Cc2ccccc2)NC(=O)c2cccc(C(=O)N(C)Cc3nc(C)cs3)c2)c1 . Its measured pKi is > 6.52

Value of measured pKi for the entry Cc1csc(CN(C)C(=O)c2cccc(C(=O)N[C@@H](Cc3ccccc3)[C@H](O)CNCc3cccc(C(C)Cl)c3)c2)n1 (stereo partly drawn) : > 6.52

The molecule listed as Cc1csc(CN(C)C(=O)c2cccc(C(=O)N[C@@H](Cc3ccccc3)[C@H](O)CNCc3cccnc3)c2)n1 has a reported pKi of < 6.30

For COc1cccc(CNC[C@@H](O)[C@H](Cc2ccccc2)NC(=O)c2cc(C(N)=O)cc(C(=O)N(C)Cc3nc(C)cs3)c2)c1 the molecule record lists pKi as > 6.52

So for CNc1cc(C(=O)N[C@@H](Cc2ccccc2)[C@H](O)CNCc2cccc(OC)c2)cc(C(=O)N(C)Cc2nc(C)cs2)c1 , the logged pKi turned out to be > 6.52

// recorded pKi for COC(=O)[C@@H]1COC(c2cc(C(=O)N[C@@H](Cc3ccccc3)[C@H](O)CNCc3cccc(OC)c3)cc(C(=O)N(C)Cc3nc(C)cs3)c2)=N1 : < 6.30

// pKi lookup, molecule = Cc1csc(CN(C)C(=O)c2cccc(C(=O)N[C@@H](Cc3ccccc3)[C@H](O)CNCc3cc(C(C)C)cc(N(C)C(=O)OCc4ccccc4)c3)c2)n1 , result: 6.30 to 6.52

pKi in this record for COc1cccc(CNC[C@@H](O)[C@H](Cc2ccccc2)NC(=O)c2cccc(C(=O)N(C)Cc3nccc(C)n3)c2)c1 : < 6.30

Form: molecule = C[C@@H](NC(=O)c1cc(C(=O)N[C@@H](Cc2ccccc2)[C@H](O)CNCc2cccc(C#N)c2)cc(N(C)S(C)(=O)=O)c1)c1ccccc1 ; pKi = > 6.52

Summary for this molecule, Cc1csc(CN(C)C(=O)c2cccc(C(=O)N[C@@H](Cc3ccccc3)[C@H](O)CNCc3cc(C(C)C)nc(N)n3)c2)n1 : pKi is > 6.52
